Test system: MDA-MB-231
Assay: NCI tumour cell line growth inhibition, 48 h
The source made the active and inactive calls. Cut-off read from the data, not from the text of the source: active = GI50 up to about 1.1 µM and inactive = higher.
Classes used: yes (active), no (inactive)

molecule | target-or-test-system | group-label
Cc1cccc(/N=N/c2ccc(/N=N/c3c(O)ccc4ccccc34)cc2C)c1 | MDA-MB-231 | no
O=[N+]([O-])c1cc(Cl)cc2c1nc(NCCO)c1ccccc12 | MDA-MB-231 | no
O=[N+]([O-])/C(C(Cl)=C(Cl)Cl)=C(/Nc1ccccc1)Sc1ccccc1 | MDA-MB-231 | no
CC1=CCC[C@@](C)(O)[C@@H]2C[C@H]3C(CSc4ccccc4)C(=O)O[C@H]3[C@@H](O2)[C@H](C)CCC1 (stereo partly specified) | MDA-MB-231 | no
O=c1cc(/C=C/c2ccc(O)c(O)c2)cc(/C=C/c2ccc(O)c(O)c2)o1 | MDA-MB-231 | no
Oc1c(-c2ccccc2)sc2ccccc12 | MDA-MB-231 | no
CC1(C)C2CC(c3ccncc3)ON2C(C)(C)N1O (stereo unspecified) | MDA-MB-231 | no
O=C(O)CCC1NC(/C(=C/c2ccccc2O)NC(=O)c2ccccc2)OC1=O (stereo unspecified) | MDA-MB-231 | no
CC1(C)C=C(S(=O)(=O)c2ccccc2)Oc2ccccc2O1 | MDA-MB-231 | no
CO/N=C1/c2sccc2[C@H](NC(=O)CNC(=O)OC(C)(C)C)[C@@H]1O | MDA-MB-231 | no
CCn1cc(C(c2ccc(Cl)cc2)n2ccnc2)c2cc(Br)ccc21 (stereo unspecified) | MDA-MB-231 | no
CN1CCC(O)(C(C)(C)C)CC1 | MDA-MB-231 | no
C=CCN1CN(c2ccccc2)C2(CCN(CCCC3(c4ccc(F)cc4)OCCO3)CC2)C1=O | MDA-MB-231 | no
N#C/C(=C1C=C(Br)/C(=N\O)C=C\1Cl)c1cccc2ccccc12 | MDA-MB-231 | no
CCOC(=O)C1=C(C)NC(C)=C(C(=O)OCC)C1c1ccc(Cl)cc1 | MDA-MB-231 | no
CC#CC(O)(C(=O)OC1CC2CCC(C1)N2C)C1CCCC1 (stereo unspecified) | MDA-MB-231 | no
FC(F)(F)c1cc(Cl)cnc1N/N=C(/c1ccccc1)c1ccccn1 | MDA-MB-231 | no
CNc1nnc(CNc2ccc(-c3nnc(NC)n3N)cc2)n1N | MDA-MB-231 | no
Cc1cc(=O)oc2cc(OC(=O)N(C)C)c(Cl)cc12 | MDA-MB-231 | no
CC(=O)NC1C(OCc2ccccc2)OC(CO)C(O)C1OC(C)C(=O)NC(C(=O)NC(CCC(=O)NCCCNc1ccc([N+](=O)[O-])c2[nH]c3ccccc3c(=O)c12)C(N)=O)C(C)C (stereo unspecified) | MDA-MB-231 | no
COc1ccc(Nc2nc(N)c(C(=O)c3ccc(Cl)cc3)s2)cc1 | MDA-MB-231 | yes

====

Tested on: HOP-62
Assay: NCI tumour cell line growth inhibition, 48 h
Activity calls are given as the source filed them. Cut-off read from the data, not from the text of the source: active = GI50 up to about 1.1 µM and inactive = higher.

compound | target-or-test-system | GI50
Cc1cccc(/N=N/c2ccc(/N=N/c3c(O)ccc4ccccc34)cc2C)c1 | HOP-62 | 22.4 µM (inactive)
CC(CO)CCC(O)C(C)(O)C1CCC2(O)C3=CC(=O)C4CC(O)C(O)CC4(C)C3CCC12C (centres undefined) | HOP-62 | > 100 µM (inactive)
C=C(C)c1nc(C#N)c(N)o1 | HOP-62 | > 100 µM (inactive)
COc1ccc(C2=C(Cl)c3cc(OC)c(OC)cc3C2Cl)cc1 (centres undefined) | HOP-62 | 17.8 µM (inactive)

====

Test system: Malme-3M
Assay: NCI tumour cell line growth inhibition, 48 h
Activity calls are given as the source filed them. No stated cut-off is given here; in the data, active = GI50 up to about 1.1 µM and inactive = higher.
Classes used: active, inactive

compound | group-label
Cc1c(-c2coc(-c3ccc(Cl)cc3)n2)c(=O)n(-c2ccccc2)n1C | inactive
O=C1c2cccc([N+](=O)[O-])c2C(=O)c2nccnc21 | inactive
Cc1ccc(C(=O)N(Cc2ccccc2)Cc2ccccc2)cc1/N=N/N(C)C | inactive
COC1=CC(=O)c2c(cc(COP(=O)(OCC3OC(n4cc(F)c(=O)[nH]c4=O)CC3O)N(C)CCCCCl)n2C)C1=O (configuration not stated) | inactive
CC(C)(C)OC(=O)[C@H]1CCC(=S)N1Cc1ccccc1 | inactive
C/C(=N/N(C=O)C[n+]1ccccc1)C(CN(CC(C)C)CC(C)C)C(=O)Nc1ccc(C)cc1C (configuration not stated) | inactive
CCCCCCN(CCCCCC)C(=S)N/N=C(\C)c1ccccn1 | inactive
S=c1nc(Nc2ccc(Br)cc2)c2c3c(sc2[nH]1)CN(N1CCc2c(sc4[nH]c(=S)nc(Nc5ccc(Br)cc5)c24)C1)CC3 | inactive
Cn1c2c3c(F)c(F)ccc3nc-2cc2ccccc21 | inactive
O=C(O)c1c(-c2nccc3ccccc23)[nH]c(-c2ccccc2)c1S(=O)(=O)O | inactive
O=C(Nc1nc2ncn(CCNCc3ccccc3)c2c(=O)[nH]1)c1ccccc1 | inactive
C[C@H]1C=C2C(=O)O[C@H]3CC[C@@H](C1)[C@@]23O | inactive
COC(=O)[C@@H]1c2[nH]c3ccccc3c2C[C@@H]2c3ccccc3NC(=O)[C@@H]21 | inactive
O=C1c2cccc3cccc(c23)C(=O)N1CCCNCCCNCCCCNCCCNCCCN1C(=O)c2cccc3cccc(c23)C1=O | inactive
COc1ccc(OC)c(-c2cn3c(n2)sc2ccccc23)c1 | inactive
c1ccc2c(c1)[n-]n1c3ccc4nonc4c3n[n+]21 | inactive
Nc1cc(CO)cc(Nc2c3ccccc3nc3ccccc23)c1 | inactive
CC(=O)N(/N=C\c1ccc([N+](=O)[O-])cc1)c1ccccc1 | inactive
CN1C(=O)C(O)CC1c1ccccc1C(F)(F)F (configuration not stated) | inactive
C1#Cc2ccccc2OCCOc2ccccc2C#Cc2ccccc2OCCOc2ccccc21 | inactive
COc1cccc2c1C(=O)c1c(O)c3c(c(O)c1C2=O)C[C@@](O)(C(=O)CO)C[C@@H]3OC1CC(N)C(OC)C(C)O1 (some centres not stated) | active
CCOC(=O)C(C)(c1cn(C)c2ccccc12)c1cn(C)c2ccccc12 | inactive
O=C(O)CCC1NC(/C(=C/c2ccccc2O)NC(=O)c2ccccc2)OC1=O (configuration not stated) | inactive
C/N=N/N(C)C(=O)NC | inactive
COC1OC(Cn2c(C)nc(Br)c2Br)C(O)C(O)C1O (configuration not stated) | inactive
CCc1cccc(C(C)C)c1NC(=O)CCl | inactive
C[C@]12CC[C@H](O)CC1=CC[C@@H]1[C@@H]2CC[C@]2(C)C(=O)/C(=C/c3ccc([N+](=O)[O-])cc3)C[C@@H]12 | inactive
N#CCCN(CCN(C(=O)Nc1ccccc1)c1ccccc1)C(=O)Nc1ccccc1 | inactive
O=c1cc(/C=C/c2ccc(O)c(O)c2)cc(/C=C/c2ccc(O)c(O)c2)o1 | inactive
COc1ccc(NC(=O)CC(=O)NN)cc1 | inactive
CCCCCCCCCCCCCCCC/C(C(=O)OC)=C(/O)C(=O)OCC | inactive
CN(CCCNC(=O)c1nn(C)c2c1Cc1ccccc1-2)CCCNC(=O)c1nn(C)c2c1Cc1ccccc1-2 | inactive
Clc1ccc(CCc2ccncn2)c(Cl)c1 | inactive
C=CCN1CN(c2ccccc2)C2(CCN(CCCC3(c4ccc(F)cc4)OCCO3)CC2)C1=O | inactive
O=C1/C=C(/c2ccc(O)cc2)[C@@H](O)Cc2ccc(O)cc2O1 | inactive
C=C1CC(c2ccc(OCCCN3C(=O)c4ccccc4C3=O)c(OC)c2)OC1=O (configuration not stated) | inactive
Nc1c(Cl)ncnc1NCC1(CO)CCC1 | inactive
CCC1=CCC(P(=O)(c2ccccc2)c2ccccc2)CC1C (configuration not stated) | inactive
CN(C)c1ccc(/C=N/c2ccc(Oc3ccc(Cl)cc3)c(Cl)c2)cc1 | inactive
COc1ccc(C2C(N)=NCC2c2ccccn2)cc1 (configuration not stated) | inactive
NC(=O)C1CCN(Cc2c(Cl)c(Cl)c(CN3CCC(C(N)=O)CC3)c(Cl)c2Cl)CC1 | inactive
O=c1[nH]c2ccccc2cc1C(Cl)=C(Cl)Cl | inactive

====

Tested on: SF-268
Assay: NCI tumour cell line growth inhibition, 48 h
The source made the active and inactive calls. No stated cut-off is given here; in the data, active = GI50 up to about 1.1 µM and inactive = higher.
Measured GI50 values are reported for all entries that follow.

compound | target-or-test-system | GI50
Oc1c(-c2ccccc2)sc2ccccc12 | SF-268 | 60.7 µM (inactive)
CCC1=CCC(P(=O)(c2ccccc2)c2ccccc2)CC1C (stereo not given) | SF-268 | 35.2 µM (inactive)
O=C(O)C/C(=C\c1ccccc1)C(=O)O | SF-268 | > 100 µM (inactive)
CCC12C=CCN3CCC4(C(=C(C(=O)OC)[C@@H]1O)Nc1ccccc14)C32 (stereo not given in full) | SF-268 | 2.29 µM (inactive)
O=C(Nc1nc2ncn(CCNCc3ccccc3)c2c(=O)[nH]1)c1ccccc1 | SF-268 | 63.8 µM (inactive)
